Give IC50 for every item shown.
target: hGYS1 enzyme (recombinant hGYS1/GN1 protein) (Homo sapiens (Human)); test: GYS1 coupled enzyme assay (PK/LDH); assay type: biochemical; settings: hGYS1/GN1 50 nM, UDP-Glucose 0.8 mM, G6P 1 mM; geometric mean of at least 2 runs
State just the number; it will be interpreted in µM.

Tell me IC50 reported for CC(C)c1ccc([C@@H](NC(=O)[C@@H]2C[C@@H](F)CN2C(=O)[C@@H](C)NC(=O)N(C)C)c2ccccc2)nc1 [Compound 274]
0.264

Tell me IC50 reported for O=C(N[C@@H](c1ccccc1)c1ccc(C2CC(F)(F)C2)c(F)c1)[C@@H]1C[C@@H](F)CN1C(=O)Cc1[nH]nnc1C(F)(F)F [Compound 553]
0.008

Tell me IC50 reported for O=C(N[C@@H](c1ccccc1)c1ccc(C2CC(F)(F)C2)c(F)n1)[C@@H]1C[C@@H](F)CN1C(=O)CNC(=O)N1CC(F)(F)C1 [Compound 512]
0.015

Tell me IC50 reported for O=C(N[C@@H](c1ccccc1)c1ccc(C2CC(F)(F)C2)c(F)c1)[C@@H]1C[C@@H](F)CN1C(=O)CNC(=O)N1CCC1 [Compound 544]
0.011

Tell me IC50 reported for O=C(N[C@@H](c1ccccc1)c1ccc(C2CC(F)(F)C2)c(F)n1)[C@@H]1C[C@@H](F)CN1C(=O)Cc1ncco1 [Compound 505]
0.02

Tell me IC50 reported for CC(C)c1ccc([C@@H](NC(=O)[C@@H]2C[C@@H](F)CN2C(=O)c2ccc3c(n2)NC(=O)CC3)c2ccccc2)cc1 [Compound 704]
2.22

Tell me IC50 reported for NCc1nnc(CC(=O)N2C[C@H](F)C[C@H]2C(=O)N[C@@H](c2ccccc2)c2ccc(C3CC3)c(F)c2)o1 [Compound 489]
0.353

Tell me IC50 reported for O=C(N[C@@H](c1ccccc1)c1ccc(C2CC(F)(F)C2)c(F)c1)[C@@H]1C[C@@H](F)CN1C(=O)Cc1nc(C(F)(F)F)co1 [Compound 555]
0.097

Tell me IC50 reported for O=C(N[C@@H](c1ccccc1)c1ccc(C2CC2)c(F)c1)[C@@H]1C[C@@H](F)CN1C(=O)Cc1ccon1 [Compound 438]
0.303

Tell me IC50 reported for CC(C)c1ccc([C@@H](NC(=O)[C@@H]2[C@H]3C[C@H]3CN2C(=O)Cc2cnn[nH]2)c2ccccc2)nc1 [Compound 279]
0.234

Tell me IC50 reported for CC(C)c1ccc([C@@H](NC(=O)[C@@H]2C[C@@H](F)CN2C(=O)Cc2nnc(C(F)F)o2)c2ccccc2)cc1F [Compound 383]
0.027

Tell me IC50 reported for O=C(N[C@@H](c1ccccc1)c1ccc(C2CC2)c(F)c1)[C@@H]1C[C@@H](F)CN1C(=O)Cc1nnco1 [Compound 426]
0.363

Tell me IC50 reported for CC(=O)N1CC(C)(C(=O)N2C[C@H](F)C[C@H]2C(=O)N[C@@H](c2ccccc2)c2ccc(C(C)C)cc2)C1 [Compound 146]
0.206

* * *

Give IC50 for every item shown.
molecular target: hGYS1 enzyme (recombinant hGYS1/GN1 protein) (Homo sapiens (Human)); assay: GYS1 coupled enzyme assay (PK/LDH); details: hGYS1/GN1 50 nM, UDP-Glucose 0.8 mM, G6P 1 mM; geometric mean of at least 2 runs
Don't forget the unit after the number, please.

Tell me IC50 reported for CC(C)c1ccc([C@@H](NC(=O)[C@@H]2C[C@@H](F)CN2C(=O)Cc2ccn(C)n2)c2ccccc2)cc1F
20 nM

Tell me IC50 reported for CC(=O)N1CC[C@@H](C)[C@H](C(=O)N2C[C@H](F)C[C@H]2C(=O)N[C@@H](c2ccccc2)c2ccc(C(C)C)cc2)C1
306 nM

Tell me IC50 reported for CC(=O)N1[C@@H](C)CC[C@H]1C(=O)N[C@@H](c1ccccc1)c1ccc(C2CC2)c(F)c1
2190 nM

Tell me IC50 reported for CC(Cc1ccccn1)C(=O)N1C[C@H](F)C[C@H]1C(=O)N[C@@H](c1ccccc1)c1ccc(C(C)C)cc1 (stereo partly shown)
99 nM

* * *

biological target: hGYS1 enzyme (recombinant hGYS1/GN1 protein) (Homo sapiens (Human)); assay: GYS1 coupled enzyme assay (PK/LDH); conditions: hGYS1/GN1 50 nM, UDP-Glucose 0.8 mM, G6P 1 mM; geometric mean of at least 2 runs
endpointName: pIC50
Units for pIC50: none; it is -log10 of a concentration expressed in mol/L.

Tell me pIC50 reported for CC(=O)N1[C@H](C(=O)N[C@@H](c2ccccc2)c2ccc(C3CC3)c(F)c2)C[C@@H]2C[C@@H]21
5.45

Tell me pIC50 reported for CC1(c2ccc([C@H](NC(=O)[C@@H]3C[C@@H](F)CN3C(=O)Cc3cnn[nH]3)c3ccccc3)cc2F)CCC1
5.88

Tell me pIC50 reported for CC(C)c1ccc(C(NC(=O)[C@@H]2C[C@@H](F)CN2C(=O)Cc2cnn[nH]2)c2ccc3cn[nH]c3c2)nc1F (single isomer, unassigned) [Compound 633]
5.80

Tell me pIC50 reported for Cc1cnc(CC(=O)N2C[C@H](F)C[C@H]2C(=O)N[C@@H](c2ccccc2)c2ccc(C(C)C)cn2)o1
7.44

Tell me pIC50 reported for CC(=O)N1C[C@H](F)C[C@H]1C(=O)NC(c1cccc(-c2ccnn2C)c1)c1ccc(C(C)C)c(F)n1 (single isomer, unassigned)
6.03

Tell me pIC50 reported for O=C(N[C@@H](c1ccccc1)c1ccc(C2CC2)c(F)n1)[C@@H]1C[C@@H](F)CN1C(=O)Cn1ccc(C(F)(F)F)n1
7.43

* * *

biological target: hGYS1 enzyme (recombinant hGYS1/GN1 protein) (Homo sapiens (Human), UniProt P13807); assay: GYS1 coupled enzyme assay (PK/LDH); details: hGYS1/GN1 50 nM, UDP-Glucose 0.8 mM, G6P 1 mM; geometric mean of at least 2 runs
Sequence (P13807 whole entry): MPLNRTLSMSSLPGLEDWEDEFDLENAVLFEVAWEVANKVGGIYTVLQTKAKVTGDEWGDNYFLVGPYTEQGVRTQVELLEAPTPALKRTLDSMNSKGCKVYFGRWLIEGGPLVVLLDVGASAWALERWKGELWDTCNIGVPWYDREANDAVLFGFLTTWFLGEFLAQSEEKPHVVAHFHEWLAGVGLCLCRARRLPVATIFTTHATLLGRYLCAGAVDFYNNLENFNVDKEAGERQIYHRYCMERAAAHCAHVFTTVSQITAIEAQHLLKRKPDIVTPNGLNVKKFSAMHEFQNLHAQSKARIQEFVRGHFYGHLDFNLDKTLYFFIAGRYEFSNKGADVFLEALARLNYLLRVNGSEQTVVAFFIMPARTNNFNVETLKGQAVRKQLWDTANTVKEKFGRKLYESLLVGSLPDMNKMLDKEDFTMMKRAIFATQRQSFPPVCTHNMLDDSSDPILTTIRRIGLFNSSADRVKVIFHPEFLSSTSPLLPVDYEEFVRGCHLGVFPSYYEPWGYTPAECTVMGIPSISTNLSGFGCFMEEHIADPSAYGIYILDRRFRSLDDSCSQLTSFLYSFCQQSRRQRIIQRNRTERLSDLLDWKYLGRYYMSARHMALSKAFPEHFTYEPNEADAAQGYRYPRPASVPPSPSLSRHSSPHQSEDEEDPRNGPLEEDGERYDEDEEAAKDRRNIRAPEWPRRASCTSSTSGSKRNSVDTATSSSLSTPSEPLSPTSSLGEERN
Sequence (P46976 whole entry partner): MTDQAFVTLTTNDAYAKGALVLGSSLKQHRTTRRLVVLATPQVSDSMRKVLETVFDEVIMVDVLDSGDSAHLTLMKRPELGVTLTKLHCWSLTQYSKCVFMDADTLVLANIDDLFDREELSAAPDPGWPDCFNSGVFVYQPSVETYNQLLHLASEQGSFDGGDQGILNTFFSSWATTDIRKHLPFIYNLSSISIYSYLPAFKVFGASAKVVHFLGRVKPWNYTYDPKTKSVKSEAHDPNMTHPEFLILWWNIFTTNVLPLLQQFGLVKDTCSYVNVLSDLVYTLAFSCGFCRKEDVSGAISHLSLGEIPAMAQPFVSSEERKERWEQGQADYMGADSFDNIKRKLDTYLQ
Give IC50 for every item shown.
State just the number; it will be interpreted in nM.

Specify IC50 for Cc1nc(CC(=O)N2C[C@H](F)C[C@H]2C(=O)N[C@@H](c2ccccc2)c2ccc(C3CC3)c(F)n2)oc1C , system hGYS1 enzyme (recombinant hGYS1/GN1 protein) (Homo sapiens (Human), UniProt P13807).
55

Specify IC50 for CC(C)c1ccc(C(NC(=O)[C@@H]2C[C@@H](F)CN2C(=O)Cc2cnn[nH]2)c2ccncc2F)cc1F (single isomer, unassigned) , system hGYS1 enzyme (recombinant hGYS1/GN1 protein) (Homo sapiens (Human), UniProt P13807).
1160

Specify IC50 for CC1(c2ccc([C@@H](NC(=O)[C@@H]3C[C@@H](F)CN3C(=O)Cc3cc4ccccc4[nH]3)c3ccccc3)nc2F)CC1 , system hGYS1 enzyme (recombinant hGYS1/GN1 protein) (Homo sapiens (Human), UniProt P13807).
153

* * *

Give IC50 for every item shown.
target: hGYS1 enzyme (recombinant hGYS1/GN1 protein) (Homo sapiens (Human)); assay: GYS1 coupled enzyme assay (PK/LDH); format: biochemical; conditions: hGYS1/GN1 50 nM, UDP-Glucose 0.8 mM, G6P 1 mM; geometric mean of at least 2 runs
State just the number; it will be interpreted in nM.

Specify IC50 for O=C(N[C@@H](c1ccccc1)c1ccc(C2CC2)c(F)n1)[C@@H]1[C@@H](O)[C@H](F)CN1C(=O)Cn1nnnc1C(F)F , system hGYS1 enzyme (recombinant hGYS1/GN1 protein) (Homo sapiens (Human)).
466

Specify IC50 for COc1cc(C(=O)N2C[C@H](F)C[C@H]2C(=O)N[C@@H](c2ccccc2)c2ccc(C(C)C)cc2)nn1C , system hGYS1 enzyme (recombinant hGYS1/GN1 protein) (Homo sapiens (Human)).
1140

Specify IC50 for CC(C)c1ccc([C@@H](NC(=O)[C@@H]2C[C@@H](F)CN2C(=O)Cc2cnco2)c2ccccc2)cc1 , system hGYS1 enzyme (recombinant hGYS1/GN1 protein) (Homo sapiens (Human)).
44

Specify IC50 for CC(=O)N1CC(CC(=O)N2C[C@H](F)C[C@H]2C(=O)N[C@@H](c2ccccc2)c2ccc(C(C)C)cc2)Oc2ccccc21 (stereo partly drawn) , system hGYS1 enzyme (recombinant hGYS1/GN1 protein) (Homo sapiens (Human)).
121

Specify IC50 for CC(C)c1ccc([C@@H](NC(=O)[C@@H]2C[C@@H](F)CN2C(=O)Cn2ccncc2=O)c2ccccc2)cc1 , system hGYS1 enzyme (recombinant hGYS1/GN1 protein) (Homo sapiens (Human)).
23

Specify IC50 for Cc1cc(C(F)F)n(CC(=O)N2C[C@H](F)C[C@H]2C(=O)N[C@@H](c2ccccc2)c2ccc(C3CC3)c(F)n2)n1 , system hGYS1 enzyme (recombinant hGYS1/GN1 protein) (Homo sapiens (Human)).
11

Specify IC50 for CC(C)c1ccc(C(NC(=O)[C@@H]2C[C@@H](F)CN2C(=O)Cc2cnn[nH]2)c2ccnc(N)c2)cc1F (single isomer, unassigned) , system hGYS1 enzyme (recombinant hGYS1/GN1 protein) (Homo sapiens (Human)).
1520

Specify IC50 for CN(C)c1cn(CC(=O)N2C[C@H](F)C[C@H]2C(=O)N[C@@H](c2ccccc2)c2ccc(C3CC3)c(F)c2)nn1 , system hGYS1 enzyme (recombinant hGYS1/GN1 protein) (Homo sapiens (Human)).
66

Specify IC50 for CC(C)c1c(F)cc(C(NC(=O)[C@@H]2C[C@@H](F)CN2C(=O)Cc2ncco2)c2ccccc2)cc1F (single isomer, unassigned) , system hGYS1 enzyme (recombinant hGYS1/GN1 protein) (Homo sapiens (Human)).
43

Specify IC50 for CC(=O)N1CCC[C@@H](CC(=O)N2C[C@H](F)C[C@H]2C(=O)N[C@@H](c2ccccc2)c2ccc(C(C)C)cc2)C1 , system hGYS1 enzyme (recombinant hGYS1/GN1 protein) (Homo sapiens (Human)).
97

Specify IC50 for O=C(N[C@@H](c1ccccc1)c1ccc(C2CC2)c(F)n1)[C@@H]1C[C@@H](F)CN1C(=O)Cn1cnc2ccccc21 , system hGYS1 enzyme (recombinant hGYS1/GN1 protein) (Homo sapiens (Human)).
6

Specify IC50 for CC(C)c1ccc([C@@H](NC(=O)[C@@H]2C[C@@H](F)CN2C(=O)Cc2cccc3ncccc23)c2ccccc2)cc1 , system hGYS1 enzyme (recombinant hGYS1/GN1 protein) (Homo sapiens (Human)).
7

Where do these numbers come from? They come from patent US11814367B2.
